# target or test system: T1, IFN-γ (human, UniProt P01579 24-166, limits assumed)
# T1 sequence (looked up): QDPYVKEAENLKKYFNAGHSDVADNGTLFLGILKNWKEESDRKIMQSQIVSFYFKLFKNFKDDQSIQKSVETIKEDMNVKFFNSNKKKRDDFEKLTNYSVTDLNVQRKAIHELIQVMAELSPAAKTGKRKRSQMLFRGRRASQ
# experiment description: cell-based or functional assay
metric: IC50, A549 cell proliferation assay (ALAMARBLUE); sample stored 3 months at pH 5, 37° C. (µg/mL)
Provide only the numeric value, understood in µg/mL.

Below: 5 binders and their reported IC50, A549 cell proliferation assay (ALAMARBLUE); sample stored 3 months at pH 5, 37° C..
binder="full length human IgG1 antibody against human IFN-γ, purified isoform Peak -2 (antibody, V domains shown, N-glycan sites at amino acids 28 and 297 of SEQ ID NO:17 (VH and CH2); sialylation isoform Peak -2) VH: EVQLVQSGAEVKKPGESLKISCKGSGYNFTSYWIGWVRQMPGKGLELMGIIYPGDSDTRYSPSFQGQVTISADKSISTAYLQWSSLKASDTAMYYCGSGSYFYFDLWGRGTLVTVSS VL: EIVLTQSPGTLSLSPGERATLSCRASQSVSSSYLAWYQQKPGQAPRLLIYGASSRATGIPDRFSGSGSGTDFTLTISRLEPEDFAVYYCQRSGGSSFTFGPGTKVDIKR" quantitative_readout=0.0038
binder="full length human IgG1 antibody against human IFN-γ, purified isoform Peak +2 (antibody, V domains shown, N-glycan sites at amino acids 28 and 297 of SEQ ID NO:17 (VH and CH2); sialylation isoform Peak +2) VH: EVQLVQSGAEVKKPGESLKISCKGSGYNFTSYWIGWVRQMPGKGLELMGIIYPGDSDTRYSPSFQGQVTISADKSISTAYLQWSSLKASDTAMYYCGSGSYFYFDLWGRGTLVTVSS VL: EIVLTQSPGTLSLSPGERATLSCRASQSVSSSYLAWYQQKPGQAPRLLIYGASSRATGIPDRFSGSGSGTDFTLTISRLEPEDFAVYYCQRSGGSSFTFGPGTKVDIKR" quantitative_readout=0.0032
binder="full length human IgG1 antibody against human IFN-γ, purified isoform Peak +1 (antibody, V domains shown, N-glycan sites at amino acids 28 and 297 of SEQ ID NO:17 (VH and CH2); sialylation isoform Peak +1) VH: EVQLVQSGAEVKKPGESLKISCKGSGYNFTSYWIGWVRQMPGKGLELMGIIYPGDSDTRYSPSFQGQVTISADKSISTAYLQWSSLKASDTAMYYCGSGSYFYFDLWGRGTLVTVSS VL: EIVLTQSPGTLSLSPGERATLSCRASQSVSSSYLAWYQQKPGQAPRLLIYGASSRATGIPDRFSGSGSGTDFTLTISRLEPEDFAVYYCQRSGGSSFTFGPGTKVDIKR" quantitative_readout=0.0028
binder="full length human IgG1 antibody against human IFN-γ, filtered purified bulk (FPB) (antibody, V domains shown, N-glycan sites at amino acids 28 and 297 of SEQ ID NO:17 (VH and CH2); heterogeneously sialylated) VH: EVQLVQSGAEVKKPGESLKISCKGSGYNFTSYWIGWVRQMPGKGLELMGIIYPGDSDTRYSPSFQGQVTISADKSISTAYLQWSSLKASDTAMYYCGSGSYFYFDLWGRGTLVTVSS VL: EIVLTQSPGTLSLSPGERATLSCRASQSVSSSYLAWYQQKPGQAPRLLIYGASSRATGIPDRFSGSGSGTDFTLTISRLEPEDFAVYYCQRSGGSSFTFGPGTKVDIKR" quantitative_readout=0.0027
binder="full length human IgG1 antibody against human IFN-γ, purified isoform Peak -1 (antibody, V domains shown, N-glycan sites at amino acids 28 and 297 of SEQ ID NO:17 (VH and CH2); sialylation isoform Peak -1) VH: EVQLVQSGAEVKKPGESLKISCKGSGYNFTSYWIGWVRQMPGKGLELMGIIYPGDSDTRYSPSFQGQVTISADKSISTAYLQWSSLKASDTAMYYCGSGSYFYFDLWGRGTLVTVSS VL: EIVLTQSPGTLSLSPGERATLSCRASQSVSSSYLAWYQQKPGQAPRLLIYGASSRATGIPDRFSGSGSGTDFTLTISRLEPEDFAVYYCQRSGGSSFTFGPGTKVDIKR" quantitative_readout=0.0033

Okay, now this binder:
INPUT: Fill in: IC50, A549 cell proliferation assay (ALAMARBLUE); sample stored 3 months at pH 5, 37° C. of full length human IgG1 antibody against human IFN-γ, purified isoform Peak 0 (antibody, V domains shown, N-glycan sites at amino acids 28 and 297 of SEQ ID NO:17 (VH and CH2); sialylation isoform Peak 0) VH: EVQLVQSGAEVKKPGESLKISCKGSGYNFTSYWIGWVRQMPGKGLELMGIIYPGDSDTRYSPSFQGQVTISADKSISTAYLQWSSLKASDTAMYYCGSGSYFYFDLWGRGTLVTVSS VL: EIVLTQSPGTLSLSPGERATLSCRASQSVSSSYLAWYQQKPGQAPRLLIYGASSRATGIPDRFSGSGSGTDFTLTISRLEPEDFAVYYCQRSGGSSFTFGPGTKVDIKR is ___
OUTPUT: 0.0033
